Target: T1, hPAR3 (Biotin) (human, biotin on the C-terminal lysine (GGGGSK-biotin, SKB))
T1 construct: also called hPAR3 peptide
T1 peptide: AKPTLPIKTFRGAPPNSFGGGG
Assay: ELISA, hybridoma supernatant
endpoint.label: Binding to PAR3 ratio (ratio)
Give the value, in units of ratio, as a plain number.

Prompt line: Looking for the measured Binding to PAR3 ratio of 5H.RH4 (antibody, IgG2b, V domains shown, Human variable regions on mouse constant regions; isotype IgG2b/κ; Tested as parent hybridoma supernatant (MoB5H H4); also called 5H RH4.C8b.A3.A6; MoB5H H4) VH: QVQLQQWGAGLLKPSETLSLTCAVYGGSFSNYYWSWIHQPPGKGLEWIGEINHSGSTNYNPSLKSRVTISVDTSKKQFSLNLSSVTAADTAVYYCKVEHSSSSGHYYYGMDVWGQGTTVTVSS VL: DIQMTQSPSSLSASVGDRVTITCRASQTISYYLNWYQQKPGKAPKLLIYAASRLQSGVPSRFSGSGSGTDFTLTISSLQPEDFTTYYCQQSYSTPLTFGGGTKVGIK , can you help?
Response line: 0.9
